B1: Osa-1-4 twister ribozyme (parent)
chain: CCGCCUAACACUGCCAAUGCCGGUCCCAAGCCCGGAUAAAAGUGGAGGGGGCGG

Variants of: B1
Assay: self-cleavage, relative activity (ratio to wild type); higher = more cleavage; co-transcriptional
reported property: self-cleavage
Field format: numeric only.

Reference set (8 entries):
mutant code	self-cleavage
A10C G51U	0.04
C14A G47U	0.05
G30U	0.04
A38C C14A	0.09
C31A C32A	0.04
C11G C32A	0.04
G23A U12C	0.08
C20U U43G	0.68

Reported self-cleavage, variant G35A G51A : ____ 0.25

Reported self-cleavage, variant C32U G13A : ____ 0.03

Reported self-cleavage, variant A46C G48A : ____ 0.04

Reported self-cleavage, variant A36U A7C : ____ 0.04

Reported self-cleavage, variant G48U U24C : ____ 0.03

Reported self-cleavage, variant C11U C25A : ____ 0.08

Reported self-cleavage, variant U18G U43A : ____ 0.76

Reported self-cleavage, variant C20U G44A : ____ 0.87

Reported self-cleavage, variant A10U C26U : ____ 0.04

Reported self-cleavage, variant A36U C32A : ____ 0.13

Reported self-cleavage, variant C26A C52A : ____ 0.08

Reported self-cleavage, variant A28U G54U : ____ 0.72

Reported self-cleavage, variant G47U G51A : ____ 0.09

Reported self-cleavage, variant C31U G30C : ____ 0.03
